Each item that follows carries a reported Kd.
- EXPERIMENTAL_SYSTEM: HLA-A*68:01
- PROTOCOL_DESCRIPTION: IEDB peptide-MHC binding, purified MHC/competitive/radioactivity; filed as Kd, often an IC50 or EC50 that approximates it; bounds were set here for any values at or beyond the usual limits of such assays
- CONDITION_SET: source organism: Dengue virus 3 Martinique/1243/1999
Express it in nM; write the number only.

Example results:
1) DVFYLPPEK: 5.57
2) IVASVNMVSR: 6.75

Exercise: # get_value(readout='Kd', item= FIFSLKDTLK )
Solution: 54.1

* * *

- EXPERIMENTAL_SYSTEM: HLA-B*58:01
- PROTOCOL_DESCRIPTION: IEDB peptide-MHC binding, purified MHC/direct/fluorescence; filed as Kd, often an IC50 or EC50 that approximates it; bounds were set here for any values at or beyond the usual limits of such assays
- CONDITION_SET: source organism: Influenza A virus (A/swine/Cotes d'Armor/800/00(H1N2))
PROPERTY_MEASURED: Kd

Exercise: # get_value(readout='Kd', item= GMDPRMCSL )
Solution: ≥ 20 µM

* * *

- EXPERIMENTAL_SYSTEM: HLA-A*26:01
- PROTOCOL_DESCRIPTION: IEDB peptide-MHC binding, purified MHC/direct/fluorescence; filed as Kd, often an IC50 or EC50 that approximates it; bounds were set here for any values at or beyond the usual limits of such assays
- CONDITION_SET: source organism: Mycobacterium tuberculosis
PROPERTY_MEASURED: pKd
Scale: negative log10 of molar concentration, which is what pKd denotes.

Exercise: # get_value(readout='pKd', item= YTPEQWWPF )
Solution: 7.94

* * *

- EXPERIMENTAL_SYSTEM: HLA-B*51:01
- PROTOCOL_DESCRIPTION: IEDB peptide-MHC binding, purified MHC/competitive/fluorescence; filed as Kd, often an IC50 or EC50 that approximates it; bounds were set here for any values at or beyond the usual limits of such assays
- CONDITION_SET: source organism: Homo sapiens
PROPERTY_MEASURED: Kd

Exercise: # get_value(readout='Kd', item= HLLCQAFSV )
Solution: ≥ 20 µM

* * *

Each item that follows carries a reported Kd.
- EXPERIMENTAL_SYSTEM: HLA-A*68:01
- PROTOCOL_DESCRIPTION: IEDB peptide-MHC binding, purified MHC/competitive/radioactivity; filed as Kd, often an IC50 or EC50 that approximates it; bounds were set here for any values at or beyond the usual limits of such assays
- CONDITION_SET: source organism: Lymphocytic choriomeningitis virus (strain Armstrong)
Express it in µM; write the number only.

Exercise: # get_value(readout='Kd', item= IYKGVYQFK )
Solution: 8.81

Exercise: # get_value(readout='Kd', item= NGQFIHFYR )
Solution: 0.0139

* * *

- EXPERIMENTAL_SYSTEM: HLA-A*03:01
- PROTOCOL_DESCRIPTION: IEDB peptide-MHC binding, purified MHC/competitive/fluorescence; bounds were set here for any values at or beyond the usual limits of such assays
- CONDITION_SET: source organism: Monodelphis domestica
pIC50: −log10 of the molar value.
PROPERTY_MEASURED: pIC50

Exercise: # get_value(readout='pIC50', item= LEYFQFVKKLL )
Solution: ≤ 4.70
